molecular target: Pantothenate synthetase (Mycobacterium tuberculosis (strain ATCC 25618 / H37Rv)); assay: Coupled enzyme confirmation of inhibitors against recombinant Mtb PanC (AID 375); settings: coupled enzyme assay; at 10 µM, stronger effect = higher value;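 note: 0% = full reaction with vehicle and 100% = no enzyme background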
readout: inhibition (%)
Record the value in %, omitting the unit from your answer.

INSERT INTO assay_data (compound, test_target, readout, display_unit, result) VALUES
  ('O=C(Nc1cnn(Cc2ccc(F)cc2)c1)c1cnccn1', 'Pantothenate synthetase (Mycobacterium tuberculosis (strain ATCC 25618 / H37Rv))', 'inhibition', '%', 2),
  ('CCC(c1nnc(SCC(=O)Nc2ccc(C(=O)Nc3ccccc3OC)cc2)o1)N(C)C (configuration not stated)', 'Pantothenate synthetase (Mycobacterium tuberculosis (strain ATCC 25618 / H37Rv))', 'inhibition', '%', 0),
  ('CC1CC(=O)C2=C(C1)OC(N)=C(C#N)C2c1coc2ccccc2c1=O (configuration not stated)', 'Pantothenate synthetase (Mycobacterium tuberculosis (strain ATCC 25618 / H37Rv))', 'inhibition', '%', 6),
  ('COc1ccc(CCn2c(-c3ccco3)nc3ccccc3c2=O)cc1OC', 'Pantothenate synthetase (Mycobacterium tuberculosis (strain ATCC 25618 / H37Rv))', 'inhibition', '%', 0),
  ('O=C(c1ccccc1)N1CCN(Cc2ccccc2Br)CC1', 'Pantothenate synthetase (Mycobacterium tuberculosis (strain ATCC 25618 / H37Rv))', 'inhibition', '%', 3);

Recorded result, CC(C)C(C(=O)Nc1ccc2c(c1)OCCO2)N1C(=O)c2ccccc2C1=O (configuration not stated) , inhibition: 0

----------
experiment: Her2 expression decrease, cell viability multiplex – SKBR3 breast tumor cells, AlphaScreen, ATP viability, primary screen (AID 461); conditions: SKBR3 Her2 protein level, 18-24 h, measured here: SKBR3 viability, ATP luminescence, at 10 µM;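 note: percent of carrier control wells set as 100% viability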
readout: viability (%)
Record the value in %, omitting the unit from your answer.

Would you please look over these solved cases?
INSERT INTO results (compound, result) VALUES
  ('C(#CCN1CCOCC1)COCC#Cc1ccccc1', 92.5),
  ('O=c1[nH]c(=O)n(Cc2ccco2)c(O)c1C=NCCCn1ccnc1', 88.5),
  ('CCOc1ccc(Br)c(C2(O)CC(C)N(C)CC2C)c1 (stereo not given)', 80.5),
  ('O=C(c1ccncc1)C12CN3CN(CN(C3)C1)C2', 115),
  ('CCN1CCN(c2ncnc3ccc(Br)cc23)CC1', 100),
  ('CCCCn1c(O)c(C(C)=NCCc2ccccc2)c(=O)[nH]c1=O', 88.5),
  ('O=C(C1CCCN(S(=O)(=O)c2cccc3nsnc23)C1)N1CCC2(CC1)OCCO2 (stereo not given)', 97),
  ('O=c1[nH]c(=O)n(Cc2ccccc2)c(O)c1C=NCCCO', 100);

Recorded result, "Cc1ccc(C)c(NC2=NCCCS2)c1" , viability: 108

Recorded result, Cc1ccc(C(=O)C2CN3CCC2CC3)cc1 (stereo not given) , viability: 93

Recorded result, "C=CCn1c(O)c(C=NCCN(C)C)c(=O)[nH]c1=O" , viability: 97.5

Recorded result, COc1cc(C2NCc3ccccc3-n3cccc32)ccc1O (stereo not given) , viability: 104

Recorded result, "COc1ccccc1/C=C1/C(=N/O)C2CCN1CC2" , viability: 104

Recorded result, "N#Cc1ccccc1Cn1cc(C(=O)c2ccco2)c2ccccc21" , viability: 98.5
